target: HpaA (Pseudomonas aeruginosa, UniProt Q9HWT7)
Sequence (Q9HWT7 whole entry): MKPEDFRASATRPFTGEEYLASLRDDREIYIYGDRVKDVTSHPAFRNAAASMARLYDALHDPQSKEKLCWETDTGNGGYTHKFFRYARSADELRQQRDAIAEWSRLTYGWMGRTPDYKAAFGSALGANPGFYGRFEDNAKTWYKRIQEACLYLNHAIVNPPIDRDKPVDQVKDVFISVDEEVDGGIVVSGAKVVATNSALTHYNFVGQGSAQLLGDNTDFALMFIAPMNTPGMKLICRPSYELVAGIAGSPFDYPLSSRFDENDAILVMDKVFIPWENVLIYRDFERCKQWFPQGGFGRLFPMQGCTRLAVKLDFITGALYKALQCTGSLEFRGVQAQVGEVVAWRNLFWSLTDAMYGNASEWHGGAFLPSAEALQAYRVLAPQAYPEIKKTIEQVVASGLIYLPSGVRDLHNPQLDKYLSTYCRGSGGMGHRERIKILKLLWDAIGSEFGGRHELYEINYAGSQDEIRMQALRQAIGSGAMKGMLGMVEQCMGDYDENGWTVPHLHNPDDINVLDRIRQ
assayName: stopped-flow
Format: binding
pKd: −log10 of the molar value.
measure: pKd

Give the measured pKd of `Cc1cc2c(cc1C)N(C[C@H](O)[C@H](O)[C@H](O)COP(=O)(O)OP(=O)(O)OC[C@H]1O[C@@H](n3cnc4c(N)ncnc43)[C@H](O)[C@@H]1O)c1[nH]c(=O)[nH]c(=O)c1N2` .
≥ 5.70
